B1: CDC14A (parent)
chain: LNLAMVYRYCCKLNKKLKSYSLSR

Variants of: B1
assay-explanation: protein stability index of a GFP-peptide fusion (GPS, HEK-293T) (PSI 1-6); higher = more stable;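 note: lentivirally expressed fusions sorted by FACS into six bins by GFP to DsRed ratio, PSI derived from sequencing read proportions per bin multiplied by bin number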
assay-setup: c terminus: a fixed tail appended
Classify as follows. Reported protein stability index greater than or equal to 3: label 1. Reported protein stability index below: label 0.

sequence_variant=L3N group_label="label 0"
sequence_variant=K15F group_label="label 0"
sequence_variant=S21I group_label="label 1"
sequence_variant=Y9K group_label="label 1"
sequence_variant=C11R group_label="label 0"
sequence_variant=L13E group_label="label 0"
sequence_variant=M5G group_label="label 1"
sequence_variant=K16E group_label="label 0"
sequence_variant=L1C group_label="label 1"
sequence_variant=N2Y group_label="label 0"
sequence_variant=A4M group_label="label 1"
sequence_variant=L17G group_label="label 0"
sequence_variant=L1S group_label="label 1"
sequence_variant=L17K group_label="label 0"
sequence_variant=C11L group_label="label 0"
sequence_variant=N14G group_label="label 1"
sequence_variant=Y20A group_label="label 0"
sequence_variant=L13I group_label="label 0"
sequence_variant=R8I group_label="label 0"
sequence_variant=L3G group_label="label 1"
sequence_variant=Y9P group_label="label 0"
sequence_variant=L13H group_label="label 0"
sequence_variant=S21W group_label="label 0"
sequence_variant=K16Q group_label="label 0"
sequence_variant=S23Q group_label="label 0"
sequence_variant=Y20I group_label="label 1"
sequence_variant=L22S group_label="label 1"
sequence_variant=M5L group_label="label 0"
sequence_variant=Y9H group_label="label 0"
sequence_variant=Y7P group_label="label 0"
sequence_variant=L17N group_label="label 0"
sequence_variant=S21D group_label="label 0"
sequence_variant=L22N group_label="label 0"
sequence_variant=A4P group_label="label 1"
sequence_variant=C11D group_label="label 0"
sequence_variant=K16M group_label="label 0"
sequence_variant=Y7Q group_label="label 0"
sequence_variant=Y7V group_label="label 1"
sequence_variant=K12E group_label="label 0"
sequence_variant=V6D group_label="label 0"
sequence_variant=M5P group_label="label 1"
sequence_variant=L17Y group_label="label 1"
sequence_variant=K18Y group_label="label 0"
sequence_variant=A4K group_label="label 0"
sequence_variant=L22H group_label="label 1"
sequence_variant=K18T group_label="label 1"
sequence_variant=L13F group_label="label 1"
sequence_variant=L13Y group_label="label 0"
sequence_variant=Y9N group_label="label 0"
sequence_variant=N14E group_label="label 1"
sequence_variant=R8G group_label="label 1"
sequence_variant=L3R group_label="label 0"
sequence_variant=N14K group_label="label 1"
sequence_variant=C10L group_label="label 0"
sequence_variant=K16I group_label="label 0"
sequence_variant=L13V group_label="label 1"
sequence_variant=V6R group_label="label 0"
sequence_variant=K18L group_label="label 0"
sequence_variant=R24L group_label="label 1"
sequence_variant=N14D group_label="label 0"
sequence_variant=L17E group_label="label 0"
sequence_variant=L3Y group_label="label 0"
